# Experimental Details: Oral bioavailability in mice, Method B (plasma and brain PK)
# Format: in vivo, C57BL/6 mice
# Reported Conditions: mouse brain, Method B, 1 mg/kg po; values represent AUC0-last
Result Type: AUC0-inf (po)

Specify reported AUC0-inf (po) for the molecule shown: CN[C@@]1(c2ccc(F)cc2)CCCCC1=O
5,890 ng*min/g

Specify reported AUC0-inf (po) for the molecule shown: N[C@]1(c2ccc(F)cc2)CCCCC1=O
6,557 ng*min/g

Give the reported value of AUC0-inf (po) for this record: N[C@]1(c2cccc(F)c2)CCCCC1=O
7,418 ng*min/g

Let me know recorded AUC0-inf (po) for CN[C@]1(c2ccc(F)cc2)CCCCC1=O , thanks.
4,264 ng*min/g

---

Give half-life at 1 μM for every item shown.
# Experimental Details: Metabolic stability in cynomolgus monkey liver microsomes (CLM)
# Assay type: in vitro ADME, cynomolgus monkeys
# Reported Conditions: male, cynomolgus monkey, pooled cynomolgus monkey liver microsomes, pH 7.4, 1 μM compound, 0.50 mg protein/mL, NADPH
Give the quantity in h, number only.

Return half-life at 1 μM (reported value) for this compound: CN[C@]1(c2ccc(F)cc2)CCCCC1=O
0.638

Could you please provide reported half-life at 1 μM for N[C@]1(c2cccc(F)c2)CCCCC1=O ? Thanks!
1.4

State its half-life at 1 μM: N[C@@]1(c2cccc(F)c2)CCCCC1=O
1.85

State its half-life at 1 μM: CN[C@@]1(c2ccc(F)cc2)CCCCC1=O
1.04

---

# Experimental Details: Oral bioavailability in monkeys (plasma PK)
# Assay type: in vivo, Cynomolgus monkeys
# Reported Conditions: male, cynomolgus monkey; monkey plasma, 1 mg/kg po; read-out: AUC0-inf (po) (converted)
Result Type: AUC(0-inf)
Write the figure, then the unit, nothing else.

Check the records and state AUC(0-inf) for CN[C@@]1(c2ccc(F)cc2)CCCCC1=O [Compound 2R]
259 ng·h/mL

---

# System Under Test: MK-801 binding site of the N-methyl-D-aspartate receptor (NMDAR)
# Experimental Details: NMDA receptor radioligand binding with [3H]MK-801
# Reported Conditions: [3H]MK-801 displacement, Wistar rat brain (minus cerebellum); read-out: NMDAR Ki (95% CI)
Result Type: pKi
FYI, pKi means -log10 of a concentration in mol per litre.

Recall the reported pKi of CN[C@]1(c2ccccc2Cl)CCCCC1=O [(S)-ketamine, reference compound] on MK-801 binding site of the N-methyl-D-aspartate receptor (NMDAR) and write it down.
6.15

# assay system MK-801 binding site of the N-methyl-D-aspartate receptor (NMDAR): give pKi of N[C@]1(c2ccc(F)cc2)CCCCC1=O
5.77

Determine reported pKi for CN[C@@]1(c2ccccc2Cl)CCCCC1=O [(R)-ketamine, reference compound] ; test system: MK-801 binding site of the N-methyl-D-aspartate receptor (NMDAR).
5.66

Please look at CN[C@@]1(c2ccc(F)cc2)CCCCC1=O and tell me its recorded pKi on MK-801 binding site of the N-methyl-D-aspartate receptor (NMDAR).
5.48

Return reported pKi for target or system MK-801 binding site of the N-methyl-D-aspartate receptor (NMDAR), item N[C@]1(c2cccc(F)c2)CCCCC1=O .
5.77

Supply pKi measured with MK-801 binding site of the N-methyl-D-aspartate receptor (NMDAR) for CN[C@]1(c2ccc(F)cc2)CCCCC1=O .
5.92

---

Assign Ki to each entry below.
# System Under Test: serotonin transporter (SERT) (Homo sapiens (Human))
# Experimental Details: SERT competition radioligand binding ([3H]imipramine)
# Reported Conditions: Human recombinant (CHO cells), 2.0 nM [3H]imipramine
The response must be a number in µM with no trailing unit.

Please look at this compound and report its Ki: CN[C@]1(c2ccc(F)cc2)CCCCC1=O [Compound 2S]
12

Tell me its Ki given CNC1(c2ccccc2F)CCCCC1=O (stereo not drawn) [Compound 2-F-DCK, reference compound] as the entry.
40

Give Ki for CN[C@@]1(c2ccc(F)cc2)CCCCC1=O [Compound 2R]
6.2

---

# Experimental Details: Metabolic stability in Gottingen minipig liver microsomes (MPLM)
# Type: in vitro ADME, Gottingen minipigs
# Reported Conditions: pooled minipig liver microsomes, pH 7.4, 1 μM compound, 0.50 mg protein/mL, NADPH
# Protocol: MPLM Stability. Pooled MPLM from Gottingen minipigs (Xenotech Z6000) were used. Microsomal incubations were carried out in multi-well plates. […] Six time points over 60 minutes were analyzed, with 60 μL aliquots of the reaction mixture being drawn at each time point. […] Supernatant samples (80 μL) were diluted with water (240 μL) and analyzed for parent compound remaining using a fit-for-purpose liquid chromatography-tandem mass spectrometry (LC-MS/MS) method. […]
Consider the following compounds; for each one, report its half-life at 1 μM.
Express it in min; write the number only.

Identify measured half-life at 1 μM associated with CNC1(c2ccccc2Cl)CCCCC1=O (racemic) [racemic ketamine, ketamine]
6.4

Determine from records and report half-life at 1 μM for CN[C@]1(c2ccc(F)cc2)CCCCC1=O
30.9

For the compound CN[C@@]1(c2ccc(F)cc2)CCCCC1=O , give its reported half-life at 1 μM.
38

---

# Experimental Details: Oral bioavailability in mice, Method A (plasma and brain PK)
# Type: in vivo, CD-1 mice
# Reported Conditions: male, CD-1, mouse plasma, 10 mg/kg po
Result Type: Cmax (ng/mL)
API: value field is a number in ng/mL; no unit string.

Entry CNC1(c2ccccc2Cl)CCCCC1=O (racemic) [racemic ketamine, ketamine] needs its Cmax filled in; supply it.
253

---

For each entry below, report its half-life value.
# Experimental Details: Oral bioavailability in mice, Method B (plasma and brain PK)
# Format: in vivo, C57BL/6 mice
# Reported Conditions: male, C57BL/6; mouse plasma, Method B, 1 mg/kg po; read-out: t1/2 (po)
Hi! Could you send only the number? It should be in min, unit omitted.

Tell me its half-life given N[C@]1(c2cccc(F)c2)CCCCC1=O as the entry.
29.4

Specify measured half-life for CN[C@]1(c2ccc(F)cc2)CCCCC1=O .
50.4

Provide half-life value for the following molecule: N[C@]1(c2ccc(F)cc2)CCCCC1=O
82.2

Give the reported half-life for this molecule. CN[C@@]1(c2ccc(F)cc2)CCCCC1=O
29.4

---

# Experimental Details: Oral bioavailability in rats, Method B (plasma and brain PK)
# Assay type: in vivo, Sprague Dawley rats
# Reported Conditions: male, Sprague Dawley; rat brain, Method B, 1 mg/kg iv; read-out: t1/2 (iv)
Please go through the items and note down their half-life.
Please make sure the unit comes right after the number.

Give half-life for the following compound: N[C@]1(c2ccc(F)cc2)CCCCC1=O [Compound 1S]
245 min

Return reported half-life. Input compound: CN[C@]1(c2ccc(F)cc2)CCCCC1=O [Compound 2S]
42 min

Give reported half-life value for CN[C@@]1(c2ccc(F)cc2)CCCCC1=O [Compound 2R]
3.8 min

---

# Experimental Details: Stability in liver microsomes (Example 21), Gottingen minipig
# Type: in vitro ADME
# Reported Conditions: male, pH 7.4, 0.5 mg/mL protein
Result Type: microsomal CLint at 1 μM (µL/min/mg)
Value expressed in µL/min/mg; do not type the unit.

Identify measured microsomal CLint at 1 μM associated with CN[C@@]1(c2ccc(F)cc2)CCCCC1=O
16.4

Hello, please tell me recorded microsomal CLint at 1 μM for this one: CN[C@]1(c2ccc(F)cc2)CCCCC1=O
20.3

Dear colleague, please send me the reported microsomal CLint at 1 μM for CNC1(c2ccccc2F)CCCCC1=O (stereo not drawn) [Compound 2-F-DCK, reference compound] when you can.
56.2

---

# Experimental Details: Metabolic stability in cynomolgus monkey liver microsomes (CLM)
# Format: in vitro ADME, cynomolgus monkeys
# Reported Conditions: male, cynomolgus monkey, pooled cynomolgus monkey liver microsomes, pH 7.4, 1 μM compound, 0.50 mg protein/mL, NADPH
Can you tell me microsomal CLint at 1 μM for the items I'm about to list?
The reply should be a number in µL/min/mg, with the unit left off.

Please report microsomal CLint at 1 μM for the following compound: CN[C@@]1(c2ccc(F)cc2)CCCCC1=O
22.2

Specify reported microsomal CLint at 1 μM for the compound shown: N[C@]1(c2cccc(F)c2)CCCCC1=O
16.6

Note down microsomal CLint at 1 μM recorded for CN[C@]1(c2ccc(F)cc2)CCCCC1=O
36.1

Answer with reported microsomal CLint at 1 μM of N[C@@]1(c2cccc(F)c2)CCCCC1=O
12.5

---

For each entry below, report its half-life value.
# Experimental Details: Comparative oral pharmacokinetics of 2R, 2S and 2-F-DCK in mice
# Assay type: in vivo, C57BL/6 mice
# Reported Conditions: male, C57BL/6; mouse plasma, 10 mg/kg po; read-out: t1/2 (po)
Number first, unit second: that is the form wanted.

Give half-life for the following molecule: CNC1(c2ccccc2F)CCCCC1=O (stereo not drawn) [Compound 2-F-DCK, reference compound]
1.15 h

Identify the reported half-life for the following entry. CN[C@@]1(c2ccc(F)cc2)CCCCC1=O
1.38 h

Answer with reported half-life of CN[C@]1(c2ccc(F)cc2)CCCCC1=O
1.48 h
